target: Grb2 SH2 (UniProt P62993); experiment: SH2 binding enrichment of the phosphorylated peptide, bacterial display (enrichment ratio); higher = better substrate or ligand; peptides without Tyr show the background
Sequence (P62993 whole entry, looked up): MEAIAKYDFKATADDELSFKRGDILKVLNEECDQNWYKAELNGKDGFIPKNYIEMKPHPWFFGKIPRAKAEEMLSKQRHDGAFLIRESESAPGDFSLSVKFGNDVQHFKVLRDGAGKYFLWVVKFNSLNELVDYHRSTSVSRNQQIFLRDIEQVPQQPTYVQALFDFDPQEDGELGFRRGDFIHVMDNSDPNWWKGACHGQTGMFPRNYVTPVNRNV
assay_metric: SH2 binding enrichment
No unit in the answer, please; the number alone is enough.

stdin: Write down SH2 binding enrichment measured for item ADFPDYKFRPR [SOX11_Y116_YF]
stdout: 0.968

###

biological target: FGFR3 (UniProt P22607); assay: phosphorylation enrichment, bacterial display (enrichment ratio); higher = better substrate or ligand; peptides without Tyr show the background
Sequence (P22607 whole entry, looked up): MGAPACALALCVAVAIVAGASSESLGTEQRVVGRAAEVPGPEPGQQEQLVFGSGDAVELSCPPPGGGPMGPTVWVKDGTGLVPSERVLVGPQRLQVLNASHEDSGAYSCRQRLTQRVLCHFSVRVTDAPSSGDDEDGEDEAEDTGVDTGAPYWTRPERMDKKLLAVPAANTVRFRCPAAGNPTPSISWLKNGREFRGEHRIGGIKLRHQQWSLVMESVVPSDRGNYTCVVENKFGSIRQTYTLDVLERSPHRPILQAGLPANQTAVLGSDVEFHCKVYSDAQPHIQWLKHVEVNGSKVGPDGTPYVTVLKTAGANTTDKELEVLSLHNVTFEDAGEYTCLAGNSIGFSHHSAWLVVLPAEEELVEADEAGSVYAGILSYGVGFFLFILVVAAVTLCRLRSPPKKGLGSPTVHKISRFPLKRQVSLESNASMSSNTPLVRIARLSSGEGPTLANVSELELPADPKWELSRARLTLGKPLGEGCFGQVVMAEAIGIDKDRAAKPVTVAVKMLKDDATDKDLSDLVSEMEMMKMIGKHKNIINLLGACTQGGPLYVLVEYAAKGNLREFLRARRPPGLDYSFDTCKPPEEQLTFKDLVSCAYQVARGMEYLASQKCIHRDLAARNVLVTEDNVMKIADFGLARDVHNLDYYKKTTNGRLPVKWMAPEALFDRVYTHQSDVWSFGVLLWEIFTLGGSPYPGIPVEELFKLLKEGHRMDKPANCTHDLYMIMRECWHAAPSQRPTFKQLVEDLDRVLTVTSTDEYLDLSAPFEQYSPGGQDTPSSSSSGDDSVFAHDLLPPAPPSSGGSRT
Note to self: values exactly at 0.6 are 1. So phosphorylation enrichment at or above 0.6 is 1, below is -1.

# entry_sequence, assigned_category
measured = [
    ("SCRENYSFSEE [LEMD3_Y258_D260Y_YF]", 1),
    ("KSSDVYVSYDY [SORL1_Y136]", 1),
    ("EDEGLYTVRVP [MYOM3_Y343_M344T]", 1),
    ("TRSYKYLLLSM [NF1_Y491]", 1),
    ("MAQDIYRASYY [ALK_Y1278_R1275Q]", 1),
]

stdin: hey, is phosphorylation enrichment for this one >= 0.6? NKVKFYIPFMN [NCR1_Y84_D87Y_YF]
stdout: -1

stdin: phosphorylation enrichment >= 0.6 for EAIAKYDFKAT [GRB2_Y7] ?
stdout: -1

stdin: For this sequence, is measured phosphorylation enrichment 0.6 or higher? ILTFKYLQIPM [KIT_Y547_K550I_YF]
stdout: 1

stdin: Hi team, for AHAGGYGAEAL [HBA1_Y25_E24G] , is the recorded phosphorylation enrichment at or above 0.6?
stdout: -1

stdin: Item PLKFLYPNIDK [STAT1_Y668_YF] with phosphorylation enrichment of 0.6 or above?
stdout: 1
